For each entry below, report its IC50 value.
# SYSTEM NAME: NUAK1 (Homo sapiens, UniProt O60285)
# MEASUREMENT NOTES: ADP-Glo biochemical assay NUAK1
# Design: purchased MRC PPU
# CONDITION DETAILS: ADP-Glo assay; read-out: NUAK1 pIC50 (converted)
# Protocol: Biological experimental procedures ADP-Glo biochemical assays Protein kinase activity in the presence of inhibitor compounds was determined by ADP-Glo assay (Promega), as previously described.1,2 Compounds were serialised using a Labcyte Echo 520 and transferred to 384 well plates (Greiner 784201) followed by the addition 5 µL of substrate containing peptide and ATP at Km in buffer (see Table S6). […]
One number for each entry, in nM.

In the examples that follow, each entry is paired with its recorded IC50.
Cc1cc(=O)n(C2CCCC2)c2nc(Nc3ccc(N4CCN(C)CC4)cc3)ncc12 :: 4.57
CN1CCN(c2ccc(Nc3ncc4ccn(C)c4n3)cc2)CC1 :: 33.9
Cc1cc(=O)n(C2CCCC2)c2nc(Nc3ccc(N4CCN(C(C)C)CC4)cc3)ncc12 :: 4.47

Please look at the items below and tell me IC50 for each one, in order.
1. CN1C2CC1CN(c1ccc(Nc3ncc4ccn(CC5CCCO5)c4n3)cc1)C2 (centres unmarked)
2. Cc1cc(=O)n(C2CCCC2)c2nc(Nc3ccc(N4CC5CC(C4)N5C)cc3)ncc12

Result:
1. 5.5
2. 5.5

----------
# SYSTEM NAME: MARK1 (Homo sapiens, UniProt Q9P0L2)
# Construct: purchased MRC PPU
# Sequence (Q9P0L2 whole entry): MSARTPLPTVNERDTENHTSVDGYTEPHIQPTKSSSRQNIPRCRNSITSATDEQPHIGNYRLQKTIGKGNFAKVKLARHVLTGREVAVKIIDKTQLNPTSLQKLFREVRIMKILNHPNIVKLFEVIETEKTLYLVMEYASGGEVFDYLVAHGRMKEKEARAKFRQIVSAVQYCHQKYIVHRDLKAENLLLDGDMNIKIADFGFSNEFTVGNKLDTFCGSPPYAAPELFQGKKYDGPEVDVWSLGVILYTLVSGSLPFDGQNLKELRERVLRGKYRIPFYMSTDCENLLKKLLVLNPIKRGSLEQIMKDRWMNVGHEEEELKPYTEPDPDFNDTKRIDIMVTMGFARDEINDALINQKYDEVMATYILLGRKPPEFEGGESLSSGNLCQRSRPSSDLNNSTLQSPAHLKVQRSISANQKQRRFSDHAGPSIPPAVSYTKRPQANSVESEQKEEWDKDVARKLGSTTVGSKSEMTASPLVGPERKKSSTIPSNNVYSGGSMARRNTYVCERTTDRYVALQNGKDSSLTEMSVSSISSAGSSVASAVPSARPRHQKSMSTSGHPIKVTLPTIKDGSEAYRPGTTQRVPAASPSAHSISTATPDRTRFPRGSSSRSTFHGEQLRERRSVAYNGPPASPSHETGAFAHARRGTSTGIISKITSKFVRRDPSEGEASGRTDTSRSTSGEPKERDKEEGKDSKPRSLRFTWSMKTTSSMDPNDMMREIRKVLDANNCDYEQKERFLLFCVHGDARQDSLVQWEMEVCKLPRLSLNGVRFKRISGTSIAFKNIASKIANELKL
# MEASUREMENT NOTES: ADP-Glo biochemical assay MARK1
# CONDITION DETAILS: ADP-Glo assay
For each of the compounds below, state its MARK1 pIC50.

Record excerpt, results attached:
CN1CCN(c2ccc(Nc3ncc4cc(C#N)c(=O)n(C5CCCC5)c4n3)cc2)CC1 [Compound 3, Narazaciclib, reference compound] :: 5.2
Cc1cc(=O)n(C2CCCC2)c2nc(Nc3ccc(N4CCN(C)CC4)cc3)ncc12 :: 5.5
CN1C2CC1CN(c1ccc(Nc3ncc4ccn(CC5CCOCC5)c4n3)cc1)C2 :: 5.1
CC(C)N1CCN(c2ccc(Nc3ncc4c(n3)N(C3CCCC3)C(=O)C4)cc2)CC1 :: 5.5

Next compound, MARK1 pIC50 to be filled in.
Problem: Checklist item: MARK1 pIC50 tested on MARK1 (Homo sapiens, UniProt Q9P0L2), entry CC(C)N1CCN(c2ccc(Nc3ncc4ccn(C5CCCC5)c4n3)cc2)CC1 , value?
Result: 5.8

----------
# SYSTEM NAME: NUAK1 (Homo sapiens)
# Sequence (O60285 1-661): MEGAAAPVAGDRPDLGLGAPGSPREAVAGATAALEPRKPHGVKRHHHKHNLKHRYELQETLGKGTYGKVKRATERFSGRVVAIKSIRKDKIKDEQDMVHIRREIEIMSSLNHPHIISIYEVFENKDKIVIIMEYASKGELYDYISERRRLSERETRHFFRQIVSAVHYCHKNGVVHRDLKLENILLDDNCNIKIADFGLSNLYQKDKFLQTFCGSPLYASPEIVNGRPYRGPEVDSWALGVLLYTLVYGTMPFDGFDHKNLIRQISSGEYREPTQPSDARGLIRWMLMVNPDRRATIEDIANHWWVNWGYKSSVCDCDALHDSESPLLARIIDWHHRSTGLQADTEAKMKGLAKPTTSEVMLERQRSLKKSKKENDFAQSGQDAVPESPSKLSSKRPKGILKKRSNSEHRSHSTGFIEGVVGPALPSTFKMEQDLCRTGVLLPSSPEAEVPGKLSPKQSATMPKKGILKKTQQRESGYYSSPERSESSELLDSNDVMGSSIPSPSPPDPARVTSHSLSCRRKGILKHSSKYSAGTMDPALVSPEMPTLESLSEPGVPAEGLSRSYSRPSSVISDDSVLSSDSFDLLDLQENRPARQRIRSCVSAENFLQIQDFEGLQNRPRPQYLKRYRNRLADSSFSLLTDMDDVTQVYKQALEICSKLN
# MEASUREMENT NOTES: ADP-Glo biochemical assay NUAK1
# Set-up: purchased MRC PPU
# CONDITION DETAILS: ADP-Glo assay
Mark y only when NUAK1 pIC50 stays strictly below 8. Values equal to the cut-off are n.

COc1cc(Nc2ncc3cc(C#N)c(=O)n(C4CCCC4)c3n2)cc(OC)c1 [Compound 17] :: y
Cc1cc(=O)n(C2CCCC2)c2nc(Nc3ccc(N4CCN(C)CC4)cc3)ncc12 [Compound 4] :: n
COc1nn(C)cc1Nc1ncc2c(C)cc(=O)n(C3CCCC3)c2n1 [Compound 18] :: y
CN1C2CC1CN(c1ccc(Nc3ncc4ccn(CC5CCCO5)c4n3)cc1)C2 (centres unmarked) [Compound 28] :: n

Problem: Take the compound CN1CCN(c2ccc(Nc3ncc4ccn(C)c4n3)cc2)CC1 [Compound 23] and say whether its NUAK1 pIC50 is less than 8.
Result: y

----------
# MEASUREMENT NOTES: Microsomal stability, mouse
# Type: in vitro ADME
# CONDITION DETAILS: mouse liver microsomes; read-out: MLM t1/2
Classify by measured half-life at 0.75 h, 1 µM: yes if it is equal to or exceeds 20 min, no if it is smaller.

Before answering, review these 3 worked examples.
Cc1cc(=O)n(C(C)C)c2nc(Nc3ccc(N4CC5CC(C4)N5C)cc3)ncc12 :: yes
CN1CCN(c2ccc(Nc3ncc4cc(C#N)c(=O)n(C5CCCC5)c4n3)cc2)CC1 [Compound 3, Narazaciclib, reference compound] :: no
CN1C2CC1CN(c1ccc(Nc3ncc4ccn(CC5CCOCC5)c4n3)cc1)C2 :: yes

Next, consider the following compound.
Problem: Hi, just wondering whether CC(C)N1CCN(c2ccc(Nc3ncc4ccn(C5CCCC5)c4n3)cc2)CC1 shows half-life at 0.75 h, 1 µM of 20 min or higher.
Result: no

----------
# SYSTEM NAME: MARK3 (Homo sapiens, UniProt P27448)
# Construct: purchased MRC PPU
# Sequence (P27448 whole entry): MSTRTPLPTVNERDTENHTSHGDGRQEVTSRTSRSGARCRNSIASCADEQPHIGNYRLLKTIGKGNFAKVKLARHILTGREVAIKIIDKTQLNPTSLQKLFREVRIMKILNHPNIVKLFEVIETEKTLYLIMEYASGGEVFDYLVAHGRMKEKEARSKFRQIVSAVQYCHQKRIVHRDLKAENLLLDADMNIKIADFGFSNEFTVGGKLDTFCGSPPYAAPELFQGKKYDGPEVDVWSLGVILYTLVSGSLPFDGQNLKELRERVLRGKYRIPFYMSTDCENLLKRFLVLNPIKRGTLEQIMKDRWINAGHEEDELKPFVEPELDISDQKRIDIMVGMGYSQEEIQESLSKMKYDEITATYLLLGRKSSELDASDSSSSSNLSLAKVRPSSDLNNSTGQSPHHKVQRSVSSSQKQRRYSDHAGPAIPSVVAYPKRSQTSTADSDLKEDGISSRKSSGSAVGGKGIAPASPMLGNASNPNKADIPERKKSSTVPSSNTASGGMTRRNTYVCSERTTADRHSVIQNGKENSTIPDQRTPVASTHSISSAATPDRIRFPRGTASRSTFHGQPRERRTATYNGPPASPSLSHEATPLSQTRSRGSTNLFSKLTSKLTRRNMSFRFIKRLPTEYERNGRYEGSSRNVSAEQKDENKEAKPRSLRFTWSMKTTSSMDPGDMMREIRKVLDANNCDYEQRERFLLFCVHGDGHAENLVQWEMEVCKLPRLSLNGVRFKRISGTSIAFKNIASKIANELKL
# MEASUREMENT NOTES: ADP-Glo biochemical assay MARK3
# CONDITION DETAILS: ADP-Glo assay
# Description: Biological experimental procedures ADP-Glo biochemical assays Protein kinase activity in the presence of inhibitor compounds was determined by ADP-Glo assay (Promega), as previously described.1,2 Compounds were serialised using a Labcyte Echo 520 and transferred to 384 well plates (Greiner 784201) followed by the addition 5 µL of substrate containing peptide and ATP at Km in buffer (see Table S6). […]
QUANTITY: MARK3 pIC50
Numbers only.

// batch mode: one MARK3 pIC50 value per listed entry
1. COc1nn(C)cc1Nc1ncc2c(C)cc(=O)n(C3CCCC3)c2n1
2. CN1C2CC1CN(c1ccc(Nc3ncc4ccn(CC5CCOC5)c4n3)cc1)C2 (stereo not drawn)

Result:
1. 4.9
2. 5.3

Below is a list of compounds. For each, state its recorded MARK3 pIC50.
1. CN1CCN(c2ccc(Nc3ncc4c(n3)N(C3CCCC3)C(=O)C(C)(C)O4)cc2)CC1
2. CN1C2CC1CN(c1ccc(Nc3ncc4cc(C#N)c(=O)n(C5CCCC5)c4n3)cc1)C2

Result:
5.9
5.9

I need MARK3 pIC50 for every entry listed below, if you could help.
1. CC(C)N1CCN(c2ccc(Nc3ncc4ccn(CC5CCOC(C)(C)C5)c4n3)cc2)CC1 (stereo not drawn)
2. CN1C2CC1CN(c1ccc(Nc3ncc4ccn(C5COC5)c4n3)cc1)C2

Result:
1: 5.2; 2: 5.4

----------
# SYSTEM NAME: NUAK1 (Homo sapiens, UniProt O60285)
# Sequence (O60285 1-661): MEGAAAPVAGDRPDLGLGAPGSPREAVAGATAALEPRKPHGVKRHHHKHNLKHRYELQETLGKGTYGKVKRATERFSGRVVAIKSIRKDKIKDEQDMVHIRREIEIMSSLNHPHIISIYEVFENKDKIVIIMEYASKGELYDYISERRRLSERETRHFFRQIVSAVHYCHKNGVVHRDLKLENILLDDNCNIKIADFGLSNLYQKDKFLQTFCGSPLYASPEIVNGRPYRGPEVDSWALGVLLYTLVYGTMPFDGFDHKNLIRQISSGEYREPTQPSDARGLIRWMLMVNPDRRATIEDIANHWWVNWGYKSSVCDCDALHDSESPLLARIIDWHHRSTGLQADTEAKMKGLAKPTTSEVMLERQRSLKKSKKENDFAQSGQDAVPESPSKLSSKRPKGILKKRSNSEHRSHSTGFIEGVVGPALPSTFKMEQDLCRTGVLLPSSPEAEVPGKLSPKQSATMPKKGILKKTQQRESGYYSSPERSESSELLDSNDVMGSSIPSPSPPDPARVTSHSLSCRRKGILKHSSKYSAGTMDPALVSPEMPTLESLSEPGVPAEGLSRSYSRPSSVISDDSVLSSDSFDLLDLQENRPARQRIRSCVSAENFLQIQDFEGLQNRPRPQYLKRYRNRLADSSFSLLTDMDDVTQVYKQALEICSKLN
# MEASUREMENT NOTES: NanoBRET target engagement assay, HEK293 cells
# CONDITION DETAILS: cell-based NanoBRET target engagement assay
Please go through the items and note down their NUAK1 cell TE pIC50.

COc1cc(Nc2ncc3c(C)cc(=O)n(C4CCCC4)c3n2)cc(OC)c1OC [Compound 15] :: 6.6
CN1CCN(c2cccc(Nc3ncc4cc(C#N)c(=O)n(C5CCCC5)c4n3)c2)CC1 [Compound 11] :: 6.3
CC(C)N1CCN(c2ccc(Nc3ncc4ccn(CC5CCOCC5)c4n3)cc2)CC1 [Compound 25] :: 7.0
CC(C)N1CCN(c2ccc(Nc3ncc4c(n3)N(C3CCCC3)C(=O)C4)cc2)CC1 [Compound 7] :: 6.6
CC(C)N1CCN(c2ccc(Nc3ncc4ccn(CC5CCOC(C)(C)C5)c4n3)cc2)CC1 (stereo not shown) [Compound 26] :: 6.8

Kindly give each listed record's NUAK1 cell TE pIC50.
1. CN1C2CC1CN(c1ccc(Nc3ncc4ccn(CC5CCCO5)c4n3)cc1)C2 (stereo not shown) [Compound 28]
2. Cc1cc(=O)n(C(C)C)c2nc(Nc3ccc(N4CC5CC(C4)N5C)cc3)ncc12 [Compound 20]
3. CC(C)N1CCN(c2ccc(Nc3ncc4ccn(CC5CCCO5)c4n3)cc2)CC1 (stereo not shown) [Compound 27]
4. CN1CCN(c2ccc(Nc3ncc4c(n3)N(C3CCCC3)C(=O)C(C)(C)O4)cc2)CC1 [Compound 6]

Result:
[6.7, 6.0, 6.9, "<4.6"]

Problem: What does the record list as NUAK1 cell TE pIC50 for CN1CCN(c2ccc(Nc3ncc4ccn(C)c4n3)cc2)CC1 [Compound 23] ?
Result: 5.7

Reference for the values: paper PMC11831560
